Test system: mouse genetic models of human Dravet syndrome and idiopathic autism
Assay: Summary: low-dose treatment of mouse models of autism
Format: in vivo, mice
Settings: low doses that do not induce sedative or anxiolytic effects
measured quantity: autistic-like behaviors and cognitive deficit in BTBR mice (summary)

CN1C(=O)CC(=O)N(c2ccccc2)c2cc(Cl)ccc21 [Clobazam]	improved
Cn1ncnc1COc1nn2c(-c3cc(F)ccc3F)nnc2cc1C(C)(C)C [L-838,417]	improved
O=C1CN=C(c2ccccc2Cl)c2cc([N+](=O)[O-])ccc2N1 [Clonazepam]	improved
